Numbers sourced from patent US9708336B2.

test.system: UniProt:P52699
Sequence (P52699 whole entry, looked up): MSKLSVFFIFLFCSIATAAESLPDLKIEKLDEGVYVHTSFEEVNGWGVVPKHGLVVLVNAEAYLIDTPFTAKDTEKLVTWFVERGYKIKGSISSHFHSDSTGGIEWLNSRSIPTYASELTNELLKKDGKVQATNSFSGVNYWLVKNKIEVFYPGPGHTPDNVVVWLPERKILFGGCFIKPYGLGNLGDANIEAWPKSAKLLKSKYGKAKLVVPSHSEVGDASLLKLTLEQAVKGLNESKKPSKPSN
test.description: biochemical
Type: biochemical
conditions.used: fluorescence assay with CCF2-FA substrate; read-out: IMP-1 IC50
pIC50: −log10 of the molar value.
Listed molecules paired with reported pIC50
value.kind: pIC50

>>> measured("NS(=O)(=O)c1nccc(-c2ccc3ncccc3c2)c1-c1nn[nH]n1")
6.02
>>> measured("NC1CCN(c2ccc(C(F)(F)F)c(S(N)(=O)=O)c2-c2nnn[nH]2)CC1")
6.80
>>> measured("NS(=O)(=O)c1nccc(-c2ccc3c(c2)CNC3=O)c1-c1nnn[nH]1 [Example 192]")
6.36
>>> measured("NS(=O)(=O)c1cccc(C2CCN(C(=O)C3(c4ccccc4)CC3)CC2)c1-c1nn[nH]n1")
7.14

----------
Listed compounds paired with reported IC50
test.system: VIM-1 (Pseudomonas aeruginosa (strain ATCC 15692 / DSM 22644 / CIP 104116 / JCM 14847 / LMG 12228 / 1C / PRS 101 / PAO1))
test.description: Enzyme activity: determination of IC50, fluorescence assay with CCF2-FA substrate (VIM-1)
Assay type: biochemical
conditions.used: fluorescence assay with CCF2-FA substrate; read-out: VIM-1 IC50
value.kind: IC50 (nM)

>>> measured("NS(=O)(=O)c1c(C(F)(F)F)ccc(N2CCC3(CCCNC3)CC2)c1-c1nnn[nH]1")
15.9
>>> measured("NCCC1CCC(N2CC(c3ccc(-c4ccc(C(F)(F)F)c(S(N)(=O)=O)c4-c4nnn[nH]4)cc3)C2)CC1 (centres unmarked)")
22.5
>>> measured("NS(=O)(=O)c1cccc(-c2cccc(-n3nccn3)c2)c1-c1nn[nH]n1")
28.9
>>> measured("N#CC1CC=C(c2cccc(S(N)(=O)=O)c2-c2nn[nH]n2)CC1 (centres unmarked)")
588
>>> measured("NC1(CN2CCC3(CCC(c4ccc(C(F)(F)F)c(S(N)(=O)=O)c4-c4nnn[nH]4)CC3)CC2)CC1")
13.3
>>> measured("CCN(CC)C(=O)c1ccc(-c2cccc(S(N)(=O)=O)c2-c2nn[nH]n2)cc1")
277
>>> measured("NS(=O)(=O)c1cccc(-c2cncnc2)c1-c1nn[nH]n1")
9960
>>> measured("CC(C)(C)Cc1cccc(S(N)(=O)=O)c1-c1nnn[nH]1")
3390
>>> measured("COC(=O)N1CCC(c2ccc(-c3cccc(S(N)(=O)=O)c3-c3nnn[nH]3)cc2)CC1")
26.7
>>> measured("NCCN1CC(c2ccc(-c3ccc(C(F)(F)F)c(S(N)(=O)=O)c3-c3nnn[nH]3)cc2)C1")
3.88
>>> measured("NS(=O)(=O)c1cccc(C#Cc2cccnc2)c1-c1nn[nH]n1")
1100
>>> measured("NS(=O)(=O)c1c(C(F)(F)F)ccc(-c2ccc(C3CCN(CC4CCNC4)CC3)cc2)c1-c1nnn[nH]1 (centres unmarked)")
6.57
>>> measured("NS(=O)(=O)c1nccc(-c2ccc3cccnc3c2)c1-c1nn[nH]n1")
62.4
>>> measured("NS(=O)(=O)c1nccc(-c2cnc3[nH]ccc3c2)c1-c1nn[nH]n1")
13.1
>>> measured("NS(=O)(=O)c1cccc(-c2cnn(Cc3ccncc3)c2)c1-c1nn[nH]n1")
940
>>> measured("N#Cc1cccc(Cc2cccc(S(N)(=O)=O)c2-c2nnn[nH]2)c1")
91.4
>>> measured("CC(CO)Oc1ccc(-c2cccc(S(N)(=O)=O)c2-c2nn[nH]n2)cc1 (centres unmarked)")
42.3

----------
test.system: VIM-1 (Pseudomonas aeruginosa (strain ATCC 15692 / DSM 22644 / CIP 104116 / JCM 14847 / LMG 12228 / 1C / PRS 101 / PAO1), UniProt A0A0F7KYQ8)
test.description: Enzyme activity: determination of IC50, fluorescence assay with CCF2-FA substrate (VIM-1)
Assay type: biochemical
conditions.used: VIM-1 IC50, VIM-1 enzyme, CCF2-FA substrate
Listed compounds paired with reported IC50
value.kind: IC50 (nM)

>>> measured("NS(=O)(=O)c1c(C(F)(F)F)ccc([C@H]2CC[C@H](NC3CCCNC3)CC2)c1-c1nnn[nH]1 (stereo partly shown)")
6.33
>>> measured("NS(=O)(=O)c1c(C(F)(F)F)ccc([C@H]2CC[C@H](NC3CC4CNCCN4C3)CC2)c1-c1nnn[nH]1 (stereo partly shown)")
15.7
>>> measured("NS(=O)(=O)c1c(C(F)(F)F)ccc(-c2cnn3ccccc23)c1-c1nnn[nH]1")
0.168
>>> measured("NS(=O)(=O)c1c(C(F)(F)F)ccc(-c2ccc(C3CCCN3)cc2)c1-c1nnn[nH]1 (stereo not shown)")
2.79
>>> measured("NC1CCCC(N[C@H]2CC[C@H](c3ccc(C(F)(F)F)c(S(N)(=O)=O)c3-c3nnn[nH]3)CC2)C1 (stereo partly shown)")
27.8
>>> measured("NC[C@H]1CC[C@H](Cc2ccc(-c3ccc(C4CNC4)cc3)c(-c3nnn[nH]3)c2S(N)(=O)=O)CC1")
0.587
>>> measured("CC(=O)NC1CCN(c2ccc(-c3cccc(S(N)(=O)=O)c3-c3nnn[nH]3)cn2)C1 (stereo not shown)")
207

----------
test.system: VIM-1 (Pseudomonas aeruginosa (strain ATCC 15692 / DSM 22644 / CIP 104116 / JCM 14847 / LMG 12228 / 1C / PRS 101 / PAO1))
test.description: Enzyme activity: determination of IC50, fluorescence assay with CCF2-FA substrate (VIM-1)
Type: biochemical
conditions.used: VIM-1 IC50, VIM-1 enzyme, CCF2-FA fluorescence assay
Listed compounds paired with reported IC50
value.kind: IC50 (nM)

>>> measured("CN(C)Cc1ccc(-c2cccc(S(N)(=O)=O)c2-c2nnn[nH]2)cc1 [Example 327]")
216
>>> measured("N#Cc1ccc(-c2cccc(S(N)(=O)=O)c2-c2nnn[nH]2)cc1 [Example 308]")
164
>>> measured("NS(=O)(=O)c1cccc(-c2ccc(CNCC3(O)CCC3)cc2)c1-c1nnn[nH]1 [Example 376]")
50.4
>>> measured("Nc1ccnc2ccc(-c3cccc(S(N)(=O)=O)c3-c3nnn[nH]3)cc12 [Example 401]")
7.57

----------
Listed molecules paired with reported pIC50
test.system: NDM-1 (Klebsiella pneumoniae)
Sequence (C7C422 whole entry, looked up, species assumed): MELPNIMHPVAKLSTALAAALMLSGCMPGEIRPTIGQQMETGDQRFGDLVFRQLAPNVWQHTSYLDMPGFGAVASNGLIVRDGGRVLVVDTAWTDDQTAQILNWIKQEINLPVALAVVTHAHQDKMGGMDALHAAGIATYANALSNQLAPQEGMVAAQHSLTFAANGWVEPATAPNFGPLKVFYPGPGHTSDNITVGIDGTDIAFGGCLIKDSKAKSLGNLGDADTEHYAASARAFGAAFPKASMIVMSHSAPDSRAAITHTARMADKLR
test.description: biochemical
Assay type: biochemical
conditions.used: fluorescence assay with CCF2-FA substrate; read-out: NDM-1 IC50
pIC50: −log10 of the molar value.
value.kind: pIC50

>>> measured("NS(=O)(=O)c1cccc(-c2cnc(NC3CC3)nc2)c1-c1nnn[nH]1")
8.08
>>> measured("CC(C)Cc1cccc(S(N)(=O)=O)c1-c1nn[nH]n1")
7.91
>>> measured("CCn1c(N)nc2cc(-c3ccc(C(F)(F)F)c(S(N)(=O)=O)c3-c3nnn[nH]3)ccc21")
8.63
>>> measured("NS(=O)(=O)c1cccc(-c2ccc(F)nc2)c1-c1nn[nH]n1")
7.72
>>> measured("Cc1nnc2ccc(-c3cccc(S(N)(=O)=O)c3-c3nnn[nH]3)cn12")
7.81
>>> measured("NC1CCC(c2cccc(S(N)(=O)=O)c2-c2nn[nH]n2)CC1 (stereo not drawn)")
7.40
>>> measured("NS(=O)(=O)c1cccc(-c2cn(S(=O)(=O)c3ccccc3)c3ncccc23)c1-c1nn[nH]n1")
8.66
>>> measured("NS(=O)(=O)c1cccc(-c2cnc(N3CCOCC3)nc2)c1-c1nn[nH]n1")
8.20
>>> measured("NC1(C2CCN(c3ccc(C(F)(F)F)c(S(N)(=O)=O)c3-c3nnn[nH]3)C2)CC1 (stereo not drawn)")
6.87
>>> measured("NS(=O)(=O)c1cccc(-c2ccc(-c3ccn[nH]3)cc2)c1-c1nn[nH]n1")
8.57
>>> measured("NS(=O)(=O)c1cccc(-c2ccc(N3CCOCC3)cc2)c1-c1nn[nH]n1")
8.46
>>> measured("NS(=O)(=O)c1cccc(-c2ccnn2Cc2ccccc2)c1-c1nn[nH]n1")
8.82
>>> measured("NS(=O)(=O)c1nccc(N2CCC(n3ccnc3)CC2)c1-c1nnn[nH]1")
6.43
>>> measured("NS(=O)(=O)c1c(C(F)(F)F)ccc(-c2ccc(C3CN(C4CC5(CCNCC5)C4)C3)cc2)c1-c1nnn[nH]1")
8.42
>>> measured("NCCCN1CC(c2ccc(-c3ccc(C(F)(F)F)c(S(N)(=O)=O)c3-c3nnn[nH]3)cc2)C1")
8.18
>>> measured("NS(=O)(=O)c1cccc(-c2ccnnc2)c1-c1nn[nH]n1")
6.46
>>> measured("NS(=O)(=O)c1cccc(-c2csc3ccccc23)c1-c1nn[nH]n1")
8.88
>>> measured("NS(=O)(=O)c1c(C(F)(F)F)ccc(N2CCC(C3CCNCC3)C2)c1-c1nnn[nH]1 (stereo not drawn)")
7.20
>>> measured("NC1CCC(N2CCC(c3ccc(-c4ccc(C(F)(F)F)c(S(N)(=O)=O)c4-c4nnn[nH]4)cc3)CC2)CC1 (stereo not drawn)")
8.19
>>> measured("NS(=O)(=O)c1nccc(N2CCC(N3CC[C@H](O)C3)CC2)c1-c1nnn[nH]1")
6.32
>>> measured("NS(=O)(=O)c1cccc(-c2cccnc2)c1-c1nn[nH]n1")
7.61
>>> measured("N#Cc1cncc(-c2cccc(S(N)(=O)=O)c2-c2nnn[nH]2)c1")
7.61
>>> measured("CS(=O)(=O)Nc1cccc(-c2ccnc(S(N)(=O)=O)c2-c2nn[nH]n2)c1")
7.94
>>> measured("NC1CCC(N2CC(c3ccc(-c4ccc(C(F)(F)F)c(S(N)(=O)=O)c4-c4nnn[nH]4)cc3)C2)C1 (stereo not drawn)")
8.45
>>> measured("NC1CC(N2CCC(c3ccc(-c4ccc(C(F)(F)F)c(S(N)(=O)=O)c4-c4nnn[nH]4)cc3)CC2)C1 (stereo not drawn)")
8.45
>>> measured("CONC(=O)c1ccc(-c2cccc(S(N)(=O)=O)c2-c2nn[nH]n2)cc1")
8.53
>>> measured("NS(=O)(=O)c1nccc(N2CCC(c3cccnc3)CC2)c1-c1nnn[nH]1")
6.99
>>> measured("NS(=O)(=O)c1nccc(-c2ccc(C3CCNC3)cc2)c1-c1nnn[nH]1 (stereo not drawn)")
7.17
>>> measured("Nc1nc2c(-c3cccc(S(N)(=O)=O)c3-c3nnn[nH]3)cccc2s1")
9.55
>>> measured("NS(=O)(=O)c1cccc(-c2ccc(-c3nnn[nH]3)cc2)c1-c1nn[nH]n1")
9.20
>>> measured("CNC1CC(N2CCC(c3ccc(-c4ccc(C(F)(F)F)c(S(N)(=O)=O)c4-c4nnn[nH]4)cc3)CC2)C1 (stereo not drawn)")
8.41
>>> measured("NS(=O)(=O)c1cccc(C2CCCCC2)c1-c1nnn[nH]1")
8.90
>>> measured("Cc1ccc(-c2cccc(S(N)(=O)=O)c2-c2nnn[nH]2)cc1")
8.42
